molecular target: UniProtKB P05181; test: Metabolism in transgenic HEK293 cells expressing CYP2E1; conditions: CYP2E1 Clone E6; 20 µM parent PCB, 24 h, supernatant
Sequence (P05181 whole entry): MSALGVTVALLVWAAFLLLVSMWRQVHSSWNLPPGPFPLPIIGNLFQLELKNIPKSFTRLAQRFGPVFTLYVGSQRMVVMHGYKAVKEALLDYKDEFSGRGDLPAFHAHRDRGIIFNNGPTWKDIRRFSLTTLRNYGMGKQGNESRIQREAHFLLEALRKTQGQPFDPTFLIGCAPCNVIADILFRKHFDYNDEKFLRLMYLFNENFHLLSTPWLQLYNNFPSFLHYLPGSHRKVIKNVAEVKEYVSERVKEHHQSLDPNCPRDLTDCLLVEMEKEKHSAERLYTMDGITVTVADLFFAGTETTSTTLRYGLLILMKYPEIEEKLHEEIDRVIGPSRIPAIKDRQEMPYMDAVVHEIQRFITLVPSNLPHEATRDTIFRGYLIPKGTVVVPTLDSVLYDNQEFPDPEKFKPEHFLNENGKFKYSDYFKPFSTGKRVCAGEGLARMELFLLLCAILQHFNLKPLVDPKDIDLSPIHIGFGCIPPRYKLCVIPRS
MEASURED ENDPOINT: Quantification of metabolites generated from PCB28, 52, and 101

COMPOUND | VALUE REPORTED
Oc1cc(Cl)c(-c2cc(Cl)c(Cl)cc2Cl)cc1Cl [4´-OHCB101, 2,2′,4,5,5′-Pentachloro-4′-biphenylol] | 5,08 nM
Oc1cc(-c2ccc(Cl)cc2)c(Cl)cc1Cl [5-OHCB28, 2,4,4′-trichloro-5-biphenylol] | <LOQ
Oc1cc(Cl)cc(-c2cc(Cl)ccc2Cl)c1Cl [3-OHCB52, 2,2′,5,5′-tetrachloro-3-biphenylol] | 0,74 nM
Oc1cc(Cl)c(-c2ccc(Cl)cc2)cc1Cl [4-OHCB31, 2,4′,5-trichloro-4-biphenylol] | <LOQ
Oc1cc(Cl)c(-c2cc(Cl)ccc2Cl)cc1Cl [4-OHCB52, 2,2′,5,5′-tetrachloro-4-biphenylol] | 10,23 nM

# evaluate next
Inquiry: Query Quantification of metabolites generated from PCB28, 52, and 101 on UniProtKB P05181 for Oc1cc(Cl)cc(-c2cc(Cl)c(Cl)cc2Cl)c1Cl [3´-OHCB101, 2,2′,4,5,5′-pentachloro-3′-biphenylol]
Reply text: <LOQ

These data points were gathered from paper PMC11489226.
